Target Desc: NK1 (Homo sapiens)
Method Notes: Signal transduction (ST), intracellular Ca++ (FLIPR), NK1 antagonistic activity
Type: cell-based
Condition Parameters: read-out: pIC50 NK1 (converted)
Procedure: This test evaluates in vitro functional NK1 antagonistic activity. For the measurements of intracellular Ca^++ concentrations the cells were grown on 96-well (black wall/transparent bottom) plates from Costar for 2 days until they reached confluence. […] The cells were preincubated with a concentration range of antagonists for 20 min at RT and Ca^++-signals after addition of the agonists were measured in a Fluorescence Image Plate Reader (FLIPR from Molecular Devices, Crawley, England). […]
Can you tell me IC50 for the items I'm about to list?
Kindly answer with a numeric value in µM, unit omitted.

Inquiry: If you can, please state the reported IC50 value of O=C(c1c(Cl)cccc1Cl)N1CCC(N2CCN(C3CCN(C(=O)c4cc(C(F)(F)F)cc(C(F)(F)F)c4)C(Cc4ccc(F)c(F)c4)C3)CC2)C1 (centres unmarked) [Compound 256] .
Reply text: 0.0251

Inquiry: Item under review: COc1ccc(S(=O)(=O)N2CCC(N3CCN([C@H]4CCN(C(=O)c5cc(C(F)(F)F)cc(C(F)(F)F)c5)[C@H](Cc5ccccc5)C4)CC3)C2)s1 (some centres unmarked) [Compound 328] . Reported IC50?
Reply text: 0.00631

Inquiry: For O=C(c1ccccc1Cl)N1CCC(N2CCN(C3CCN(C(=O)c4cc(C(F)(F)F)cc(C(F)(F)F)c4)C(Cc4ccccc4)C3)CC2)C1 (single isomer, unassigned) [Compound 159] , what is its reported IC50?
Reply text: 0.02

Inquiry: Returns the measured IC50 for the input molecule. Input: O=C(c1cc(F)ccc1F)N1CCC(N2CCN([C@H]3CCN(C(=O)c4cc(C(F)(F)F)cc(C(F)(F)F)c4)[C@H](Cc4ccccc4)C3)CC2)C1 (some centres unmarked) [Compound 21]
Reply text: 0.0126

Inquiry: // lookup IC50 for O=C(C1CC1)N1CCC(N2CCN(C3CCN(C(=O)c4cc(C(F)(F)F)cc(C(F)(F)F)c4)C(Cc4cc(F)cc(F)c4)C3)CC2)C1 (centres unmarked) [Compound 340]
Reply text: 0.0501

* * *

Target Desc: NK1 (Homo sapiens, UniProt P25103)
Sequence (P25103 whole entry): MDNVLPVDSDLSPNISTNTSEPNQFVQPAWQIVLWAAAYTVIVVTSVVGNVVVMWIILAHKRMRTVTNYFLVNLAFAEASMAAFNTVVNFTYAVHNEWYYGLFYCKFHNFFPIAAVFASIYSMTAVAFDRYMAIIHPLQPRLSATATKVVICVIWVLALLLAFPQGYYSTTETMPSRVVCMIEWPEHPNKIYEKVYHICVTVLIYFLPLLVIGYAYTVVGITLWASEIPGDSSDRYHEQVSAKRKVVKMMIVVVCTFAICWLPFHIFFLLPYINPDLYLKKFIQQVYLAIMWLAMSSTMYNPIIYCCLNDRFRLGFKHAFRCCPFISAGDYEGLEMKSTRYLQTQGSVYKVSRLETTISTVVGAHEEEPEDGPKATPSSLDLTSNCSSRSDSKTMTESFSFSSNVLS
Method Notes: Signal transduction (ST), intracellular Ca++ (FLIPR), NK1 antagonistic activity
Format: cell-based
Condition Parameters: read-out: pIC50 NK1 (converted)
Value Type: IC50 (nM)
# number only, unit nM dropped from output

Inquiry: Entry O=C(c1cc(C(F)(F)F)cc(C(F)(F)F)c1)N1CC[C@H](N2CCN(C3CCN(S(=O)(=O)c4occc4CCOCc4ccccc4)C3)CC2)C[C@H]1Cc1ccccc1 (some centres unmarked) [Compound 410] : reported IC50 = ?
Reply text: 50.1

Inquiry: What measured IC50 goes with CC(C)(C)OC(=O)N1CCC(N2CCN(C3CCN(C(=O)c4cc(C(F)(F)F)cc(C(F)(F)F)c4)C(Cc4ccc(Cl)c(Cl)c4)C3)CC2)C1 (single isomer, unassigned) [Compound 243] ?
Reply text: 200

Inquiry: Reported IC50, compound O=C(c1ccsc1)N1CC[C@H](N2CCN([C@H]3CCN(C(=O)c4cc(C(F)(F)F)cc(C(F)(F)F)c4)[C@H](Cc4ccc(Cl)c(Cl)c4)C3)CC2)C1 [Compound 325] : ____
Reply text: 15.8

Inquiry: For O=C(c1cccs1)N1CC[C@H](N2CCN([C@H]3CCN(C(=O)c4cc(C(F)(F)F)cc(C(F)(F)F)c4)[C@H](Cc4ccc(Cl)c(Cl)c4)C3)CC2)C1 [Compound 318] , what is its reported IC50?
Reply text: 15.8

Inquiry: Quick one: IC50 for O=C(c1ccoc1)N1CCC(N2CCN(C3CCN(C(=O)c4cc(C(F)(F)F)cc(C(F)(F)F)c4)C(Cc4ccccc4)C3)CC2)C1 (single isomer, unassigned) [Compound 32] ?
Reply text: 12.6

Inquiry: Query (compound): O=C(C1CCc2cc(F)ccc2O1)N1CCC(N2CCN([C@H]3CCN(C(=O)c4cc(C(F)(F)F)cc(C(F)(F)F)c4)[C@H](Cc4ccccc4)C3)CC2)C1 (some centres unmarked) [Compound 61] ; field requested: IC50
Reply text: 31.6

Inquiry: Return reported IC50; argument: CC1(C)OC(=O)[C@@H](CC(=O)N2CCC(N3CCN([C@H]4CCN(C(=O)c5cc(C(F)(F)F)cc(C(F)(F)F)c5)[C@H](Cc5ccccc5)C4)CC3)C2)O1 (some centres unmarked) [Compound 392]
Reply text: 251

Inquiry: Consider the compound O=C(c1cc(C(F)(F)F)cc(C(F)(F)F)c1)N1CCC(N2CCN(C3CCN(Cc4ccccc4)C3)CC2)CC1Cc1cc(Cl)cc(Cl)c1 (centres unmarked) [Compound 320] and give its measured IC50.
Reply text: 251

Inquiry: // query IC50 value for entry O=C(c1sccc1CCO)N1CCC(N2CCN([C@H]3CCN(C(=O)c4cc(C(F)(F)F)cc(C(F)(F)F)c4)[C@H](Cc4ccccc4)C3)CC2)C1 (some centres unmarked) [Compound 369]
Reply text: 12.6

Inquiry: Reported IC50, compound O=C(c1cc(C(F)(F)F)cc(C(F)(F)F)c1)N1CCC(N2CCN(C3CCN(S(=O)(=O)c4cc(CCO)cs4)C3)CC2)CC1Cc1ccccc1 (centres unmarked) [Compound 342] : ____
Reply text: 5.01

Inquiry: Report IC50 for CC1(C)OCC(CNC(=NC#N)N2CCC(N3CCN(C4CCN(C(=O)c5cc(C(F)(F)F)cc(C(F)(F)F)c5)C(Cc5ccccc5)C4)CC3)C2)O1 (centres unmarked) [Compound 370] please.
Reply text: 20
